Reported relative IC50 values are given for each entry in this list.
tested on: normal primary NK cells, pool 3 (3 donors) (IL-2 2.5 ng/mL); test: relative IC50 (inflection point of fitted viability curve, relative to fitted max inhibition); higher = less sensitive; settings: 72 h

Worked set:
In [3]: df
Out[3]:
                                   molecule  meas_value
0  Cc1cn(-c2cc(NC(=O)c3ccc(C)c(Nc4nccc(-c5cccnc5)n4)c3)cc(C(F)(F)F)c2)cn1     > 10 µM
1  CCNC(=O)CCC/C=C\C[C@@H]1[C@@H](/C=C/[C@@H](O)CCc2ccccc2)[C@H](O)C[C@@H]1O    > 5.5 µM

Now examine the next entry.
The recorded relative IC50 for entry "CN(C[C@@H]1COCCO1)S(=O)(=O)Nc1ccc2ccc3ncc(-c4cnn(C)c4)cc3c(=O)c2c1" equals > 10 µM

// data source = the supplement of paper PMC5908809
